Target: anti-CD28 scFv (VH - linker 1 - VL) (biotinylated (site not stated))
Sequence (scFv, as listed by the source): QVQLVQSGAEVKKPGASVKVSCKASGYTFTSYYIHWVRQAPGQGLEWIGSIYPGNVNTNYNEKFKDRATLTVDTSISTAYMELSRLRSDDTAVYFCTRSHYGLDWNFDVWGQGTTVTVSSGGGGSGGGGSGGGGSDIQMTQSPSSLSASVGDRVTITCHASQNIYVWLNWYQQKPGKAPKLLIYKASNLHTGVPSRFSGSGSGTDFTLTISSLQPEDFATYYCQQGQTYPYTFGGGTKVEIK
Assay: phage ELISA; biotinylated anti-CD28 scFv on neutravidin plate, clonal phage supernatant, anti-M13-HRP detection;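 also: before phage addition, wells were pretreated with soluble CD28 protein in blocking buffer, or with blocking buffer only as the comparison, then phage were added without washing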
Where no end group is shown, it is not given here.
Define the label as condition met when CD28 scFv signal is strictly less than 1 and as condition not met in all remaining cases.

Binder	Label Value
MDWCPKDLWHECFN (peptide, not shown: large carriers, cysteine pairing not given here; also: displayed as fusion to phage pIII, linker and pIII sequence not given here, Clonal phage of the Peptide-9 library) [Phage-168]	condition met

Lookup: Lab note: CD28 scFv signal threshold 1. Does this binder come in strictly under it? MDWCPRHLWSECFY (peptide, not shown: large carriers, cysteine pairing not given here; also: fused to phage pIII protein, pIII and linker sequence not given here, Clonal phage of the Peptide-9 library) [Phage-146]
Found: condition not met
